# procedure-details: D90 particle size of atovaquone by Malvern Mastersizer
# Type: physicochemical
# test-parameters: Run 1, stir time 1 min; 30 mg in 900 mL purified water, polysorbate 80, 10 min sonication, 400 rpm
# Procedure: The particle size of atovaquone was determined by a Malvern Mastersizer as 30 mg in 900 mL of purified water with 3 drops of polysorbate 80, 10 minutes of sonication and a stirrer speed of 400 rpm. […]
reported-metric: D90 particle size (microns)

O=C1C(O)=C([C@H]2CC[C@H](c3ccc(Cl)cc3)CC2)C(=O)c2ccccc21 [Example 4] :: 4.651
O=C1C(O)=C([C@H]2CC[C@H](c3ccc(Cl)cc3)CC2)C(=O)c2ccccc21 [Example 1] :: 5.088
O=C1C(O)=C([C@H]2CC[C@H](c3ccc(Cl)cc3)CC2)C(=O)c2ccccc21 [Example 5] :: 7.971

I: O=C1C(O)=C([C@H]2CC[C@H](c3ccc(Cl)cc3)CC2)C(=O)c2ccccc21 [Example 2]
II: O=C1C(O)=C([C@H]2CC[C@H](c3ccc(Cl)cc3)CC2)C(=O)c2ccccc21 [Example 3]
For the pair I and II , which member has the lower D90 particle size number? Write the label of whichever entry you select.
II
(II: 4.280 microns, I: 6.177 microns)
